assay_overview: A CellTox Green Cytotoxicity Assay to monitor cytotoxicity in HEK293 cells - 40 hour (AID 1224871); also: % is scaled to controls: 0 for no effect and ±100 for the full control effect; nearly all actives have a fitted effect of over 45% in size
condition_notes: CellTox Green fluorescence; series mostly up to 76.8 µM
Inconclusive results are not listed. Active and inactive are the calls of the source. Calls follow the shape of the dose curve; as a rule, active = well fitted activation curve with a large enough effect in the repeat runs; inconclusive = weak or mixed curves; inactive = flat fitted curve, though single readings scatter.
parameter_measured: cytotoxicity increase

molecule=O=C(NC1CCN(CCc2c[nH]c3ccccc23)CC1)c1ccccc1 parameter_measured="cytotoxicity increase" result=inactive
molecule=COc1cc(CNC(=O)CCCC/C=C/C(C)C)ccc1O parameter_measured="cytotoxicity increase" result=inactive
molecule=CCCCCCCCS parameter_measured="cytotoxicity increase" result=inactive
molecule=Clc1nc2ccccc2nc1Cl parameter_measured="cytotoxicity increase" result=inactive
molecule=Cc1cccc(C)c1NC(=O)CN1CCCC1 parameter_measured="cytotoxicity increase" result=inactive
molecule=O=C(O)c1ccc2c(c1)nc(C(=O)NC1CCN(C3CC3)CC1)n2Cc1cc(-c2ccc(Cl)s2)on1 parameter_measured="cytotoxicity increase" result="-0.224% [at 15.8 µM] (inactive)"
molecule=OCCc1ccncc1 parameter_measured="cytotoxicity increase" result=inactive
molecule=C=C[Si](OCC)(OCC)OCC parameter_measured="cytotoxicity increase" result=inactive
molecule=CC(C)(C)N parameter_measured="cytotoxicity increase" result=inactive
molecule="CC(C)(Cc1c[nH]c2ccccc12)NCC(O)COc1ccccc1C#N (centres undefined)" parameter_measured="cytotoxicity increase" result=inactive
molecule=CCOc1ccc(NC(C)=O)cc1N parameter_measured="cytotoxicity increase" result=inactive
molecule=COc1ccc(C(=O)c2ccc(C)cc2)c(O)c1 parameter_measured="cytotoxicity increase" result=inactive
molecule=CCOC(C)OCC parameter_measured="cytotoxicity increase" result=inactive
molecule=CC(C)CCCCCCCOC(=O)c1ccc(C(=O)OCCCCCCCC(C)C)c(C(=O)OCCCCCCCC(C)C)c1 parameter_measured="cytotoxicity increase" result=inactive

---

system: Thyrotropin-releasing hormone receptor (Homo sapiens) (UniProt P34981)
Sequence (P34981 whole entry, looked up): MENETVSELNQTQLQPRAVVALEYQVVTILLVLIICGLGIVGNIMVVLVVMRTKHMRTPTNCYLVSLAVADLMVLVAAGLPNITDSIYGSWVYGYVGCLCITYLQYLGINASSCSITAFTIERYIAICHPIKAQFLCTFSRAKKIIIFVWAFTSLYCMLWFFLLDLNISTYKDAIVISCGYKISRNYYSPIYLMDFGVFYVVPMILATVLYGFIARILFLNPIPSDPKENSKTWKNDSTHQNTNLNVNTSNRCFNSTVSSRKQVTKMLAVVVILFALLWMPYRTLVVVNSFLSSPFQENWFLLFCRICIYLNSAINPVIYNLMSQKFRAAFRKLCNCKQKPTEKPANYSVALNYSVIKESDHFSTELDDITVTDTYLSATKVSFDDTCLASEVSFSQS
assay_overview: qHTS assay to identify small molecule antagonists of the thyrotropin-releasing hormone receptor (TRHR) signaling pathway (AID 1346877); also: % is scaled to controls: 0 for no effect and ±100 for the full control effect
condition_notes: TRHR-HEK293, TRH-induced calcium fluorescence, antagonist mode; series mostly up to 51.3 µM
Description: National Center for Advancing Translational Sciences [NCATS] NIH Chemical Genomics Center [NCGC] U.S. Environmental Protection Agency [EPA] National Institutes of Environmental Health Sciences [NIEHS] National Toxicology Program [NTP] […] The TRHR-Hek293 cells were dispensed at 1500cells/4uL/well in 1536-well black-clear bottom plates using a Multidrop dispenser. […] The fluorescence intensity in the plates was measured using FDSS 7000EX kinetic plate reader for 3 min at 1 sec intervals. […]
Calls of active or inactive are those of the source. The call rests on the fitted dose curve; in most records, active means well fitted inhibition curve with a large enough effect in the repeat runs (not every such curve was filed as active); inconclusive means weak or mixed curves; inactive means flat fitted curve, though single readings scatter.
parameter_measured: activity, negative = inhibition

chemical_structure=CC(=O)Nc1ccccc1O parameter_measured="activity, negative = inhibition" result=inactive
chemical_structure=C[Si](C)(C)O[Si](C)(C)O[Si](C)(C)C parameter_measured="activity, negative = inhibition" result=inactive
chemical_structure=O=C(O)c1ccncc1 parameter_measured="activity, negative = inhibition" result=inactive
chemical_structure=CCCC(=O)OCCC(C)C parameter_measured="activity, negative = inhibition" result=inactive
chemical_structure=O=C(O)c1ccc2c(c1)nc(C(=O)NC1CCN(C3CC3)CC1)n2Cc1cc(-c2ccc(Cl)s2)on1 parameter_measured="activity, negative = inhibition" result="0.0336% [at 10.5 µM] (inactive)"
